Data credit: the supplement of paper PMC8612539

Test system: Escherichia coli
protocol: minimum inhibitory concentration (MIC)
reportedConditions: isolate (source animal id): 171
metric: minimum inhibitory concentration (µg/mL)
Write it as a number; the unit µg/mL goes unstated.

Q. Quick check: minimum inhibitory concentration of "CC1(C)S[C@@H]2[C@H](NC(=O)[C@H](N)c3ccccc3)C(=O)N2[C@H]1C(=O)O" ?
A. 4

Q. // next record "CN(C)[C@@H]1C(O)=C(C(N)=O)C(=O)[C@@]2(O)C(O)=C3C(=O)c4c(O)cccc4[C@@](C)(O)[C@H]3C[C@@H]12"
A. 1

---

Exercise: state measured minimum inhibitory concentration for each of the compounds provided.
System: Pasteurella multocida
protocol: minimum inhibitory concentration (MIC)
reportedConditions: isolate (source animal id): 168

Q. Write down the reported minimum inhibitory concentration of "COc1cc(Cc2cnc(N)nc2N)cc(OC)c1OC.Cc1cc(NS(=O)(=O)c2ccc(N)cc2)no1" , test system: Pasteurella multocida.
A. ≤ 2 µg/mL

Q. // next record "CC[C@H]1OC(=O)C[C@@H](O)[C@H](C)[C@@H](O[C@@H]2O[C@H](C)[C@@H](O)[C@H](N(C)C)[C@H]2O)[C@@H](CCN2C[C@H](C)C[C@H](C)C2)C[C@@H](C)C(=O)/C=C/C(C)=C/[C@@H]1CO[C@@H]1O[C@H](C)[C@@H](O)[C@@H](OC)[C@H]1OC"
A. > 16 µg/mL

Q. // next record "CCN1CCN(c2cc3c(cc2F)c(=O)c(C(=O)O)cn3C2CC2)CC1"
A. 2 µg/mL

Q. // next record "NC[C@@H]1O[C@H](O[C@H]2[C@@H](O)[C@H](O[C@@H]3[C@@H](O)[C@H](N)C[C@H](N)[C@H]3O[C@H]3O[C@H](CN)[C@@H](O)[C@H](O)[C@H]3N)O[C@@H]2CO)[C@H](N)[C@@H](O)[C@@H]1O"
A. > 32 µg/mL

Q. // next record "CC[C@H]1OC(=O)C[C@@H](O)[C@H](C)[C@@H](O[C@@H]2O[C@H](C)[C@@H](O[C@H]3C[C@@](C)(O)[C@@H](O)[C@H](C)O3)[C@H](N(C)C)[C@H]2O)[C@@H](CC=O)C[C@@H](C)C(=O)/C=C/C(C)=C/[C@@H]1CO[C@@H]1O[C@H](C)[C@@H](O)[C@@H](OC)[C@H]1OC"
A. > 32 µg/mL

Q. // next record "CO/N=C(\C(=O)N[C@@H]1C(=O)N2C(C(=O)O)=C(CSC(=O)c3ccco3)CS[C@H]12)c1csc(N)n1"
A. ≤ 0.25 µg/mL

Q. // next record "CN1C[C@@H]2C[C@H]1CN2c1cc2c(cc1F)c(=O)c(C(=O)O)cn2C1CC1"
A. > 1 µg/mL

Q. // next record "CCCNC[C@]1(O)[C@H](C)O[C@@H](O[C@H]2[C@H](C)[C@@H](O[C@@H]3O[C@H](C)C[C@H](N(C)C)[C@H]3O)[C@](C)(O)C[C@@H](C)CN[C@H](C)[C@@H](O)[C@](C)(O)[C@@H](CC)OC(=O)[C@@H]2C)C[C@@]1(C)OC"
A. ≤ 8 µg/mL

---

System: Enterococcus spp.
protocol: minimum inhibitory concentration (MIC)
reportedConditions: isolate (source animal id): 111
Exercise: state measured minimum inhibitory concentration for each of the molecules provided.

Q. Quick check: minimum inhibitory concentration of CCC[C@@H]1C[C@@H](C(=O)N[C@@H]([C@H]2O[C@H](SC)[C@H](O)[C@@H](O)[C@H]2O)[C@H](C)Cl)N(C)C1 [Clindamycin] ?
A. ≤ 0.25 µg/mL

Q. // next record CC1(C)S[C@@H]2[C@H](NC(=O)[C@H](N)c3ccccc3)C(=O)N2[C@H]1C(=O)O [Ampicillin]
A. ≤ 0.25 µg/mL

Q. // next record CN[C@@H]1[C@H](O)[C@H](NC)[C@H]2O[C@@]3(O)C(=O)C[C@@H](C)O[C@H]3O[C@@H]2[C@H]1O [Spectinomycin]
A. 32 µg/mL

Q. // next record CC1(C)S[C@@H]2[C@H](NC(=O)Cc3ccccc3)C(=O)N2[C@H]1C(=O)O [Penicillin]
A. ≤ 0.12 µg/mL

Q. // next record CCCN1C[C@H](C)[C@@H](O)[C@](C)(O)[C@@H](CC)OC(=O)[C@H](C)[C@@H](O[C@H]2C[C@@](C)(OC)[C@@H](O)[C@H](C)O2)[C@H](C)[C@@H](O[C@@H]2O[C@H](C)C[C@H](N(C)C)[C@H]2O)[C@](C)(O)C[C@H]1C [Gamithromycin]
A. ≤ 1 µg/mL

---

Exercise: state measured minimum inhibitory concentration for each of the compounds provided.
Tested on: Pasteurella multocida
protocol: minimum inhibitory concentration (MIC)
reportedConditions: isolate (source animal id): 151

Q. Write down the reported minimum inhibitory concentration of CNC(C)C1CCC(N)C(OC2C(N)CC(N)C(OC3OCC(C)(O)C(NC)C3O)C2O)O1 (stereo unspecified) [Gentamicin] , test system: Pasteurella multocida.
A. 4 µg/mL

Q. // next record CC1(C)S[C@@H]2[C@H](NC(=O)[C@H](N)c3ccccc3)C(=O)N2[C@H]1C(=O)O [Ampicillin]
A. ≤ 0.25 µg/mL

Q. // next record CO/N=C(\C(=O)N[C@@H]1C(=O)N2C(C(=O)O)=C(CSC(=O)c3ccco3)CS[C@H]12)c1csc(N)n1 [Ceftiofur]
A. ≤ 0.25 µg/mL

Q. // next record CC[C@H]1OC(=O)C[C@@H](O)[C@H](C)[C@@H](O[C@@H]2O[C@H](C)[C@@H](O)[C@H](N(C)C)[C@H]2O)[C@@H](CCN2C[C@H](C)C[C@H](C)C2)C[C@@H](C)C(=O)/C=C/C(C)=C/[C@@H]1CO[C@@H]1O[C@H](C)[C@@H](O)[C@@H](OC)[C@H]1OC [Tilmicosin]
A. > 16 µg/mL

Q. // next record NC[C@@H]1O[C@H](O[C@H]2[C@@H](O)[C@H](O[C@@H]3[C@@H](O)[C@H](N)C[C@H](N)[C@H]3O[C@H]3O[C@H](CN)[C@@H](O)[C@H](O)[C@H]3N)O[C@@H]2CO)[C@H](N)[C@@H](O)[C@@H]1O [Neomycin]
A. 32 µg/mL

Q. // next record CCC[C@@H]1C[C@@H](C(=O)N[C@@H]([C@H]2O[C@H](SC)[C@H](O)[C@@H](O)[C@H]2O)[C@H](C)Cl)N(C)C1 [Clindamycin]
A. > 16 µg/mL

---

Exercise: state measured minimum inhibitory concentration for each of the compounds provided.
System: Escherichia coli
protocol: minimum inhibitory concentration (MIC)
reportedConditions: isolate (source animal id): 159

Q. Quick check: minimum inhibitory concentration of "CC1(C)S[C@@H]2[C@H](NC(=O)Cc3ccccc3)C(=O)N2[C@H]1C(=O)O" ?
A. > 8 µg/mL

Q. // next record "CN[C@@H]1[C@H](O)[C@H](NC)[C@H]2O[C@@]3(O)C(=O)C[C@@H](C)O[C@H]3O[C@@H]2[C@H]1O"
A. ≤ 8 µg/mL

Q. // next record "CO/N=C(\C(=O)N[C@@H]1C(=O)N2C(C(=O)O)=C(CSC(=O)c3ccco3)CS[C@H]12)c1csc(N)n1"
A. ≤ 0.25 µg/mL

Q. // next record CNC(C)C1CCC(N)C(OC2C(N)CC(N)C(OC3OCC(C)(O)C(NC)C3O)C2O)O1 (stereo not given)
A. ≤ 1 µg/mL

Q. // next record "COc1cc(NS(=O)(=O)c2ccc(N)cc2)nc(OC)n1"
A. > 256 µg/mL

---

Exercise: state measured minimum inhibitory concentration for each of the compounds provided.
Tested on: Pasteurella multocida
protocol: minimum inhibitory concentration (MIC)
reportedConditions: isolate (source animal id): 269
Write it as a number; the unit µg/mL goes unstated.

Q. Write down the reported minimum inhibitory concentration of "CN[C@@H]1[C@H](O)[C@H](NC)[C@H]2O[C@@]3(O)C(=O)C[C@@H](C)O[C@H]3O[C@@H]2[C@H]1O" , test system: Pasteurella multocida.
A. 32

Q. // next record "CS(=O)(=O)c1ccc([C@@H](O)[C@@H](CF)NC(=O)C(Cl)Cl)cc1"
A. 0.5

Q. // next record "CN1C[C@@H]2C[C@H]1CN2c1cc2c(cc1F)c(=O)c(C(=O)O)cn2C1CC1"
A. 0.25

Q. // next record "CN(C)[C@@H]1C(O)=C(C(N)=O)C(=O)[C@@]2(O)C(O)=C3C(=O)c4c(O)cccc4[C@@](C)(O)[C@H]3C[C@@H]12"
A. 8

---

Test system: Escherichia coli
protocol: minimum inhibitory concentration (MIC)
reportedConditions: isolate (source animal id): 107
metric: minimum inhibitory concentration

Q. Quick check: minimum inhibitory concentration of CN1C[C@@H]2C[C@H]1CN2c1cc2c(cc1F)c(=O)c(C(=O)O)cn2C1CC1 [Danofloxacin] ?
A. ≤ 0.12 µg/mL

Q. // next record NC[C@@H]1O[C@H](O[C@H]2[C@@H](O)[C@H](O[C@@H]3[C@@H](O)[C@H](N)C[C@H](N)[C@H]3O[C@H]3O[C@H](CN)[C@@H](O)[C@H](O)[C@H]3N)O[C@@H]2CO)[C@H](N)[C@@H](O)[C@@H]1O [Neomycin]
A. ≤ 4 µg/mL

Q. // next record COc1cc(NS(=O)(=O)c2ccc(N)cc2)nc(OC)n1 [sulfadimethoxine]
A. > 256 µg/mL

Q. // next record CC[C@H]1OC(=O)C[C@@H](O)[C@H](C)[C@@H](O[C@@H]2O[C@H](C)[C@@H](O[C@H]3C[C@@](C)(O)[C@@H](O)[C@H](C)O3)[C@H](N(C)C)[C@H]2O)[C@@H](CC=O)C[C@@H](C)C(=O)/C=C/C(C)=C/[C@@H]1CO[C@@H]1O[C@H](C)[C@@H](O)[C@@H](OC)[C@H]1OC [Tylosin]
A. > 32 µg/mL

Q. // next record CN[C@@H]1[C@H](O)[C@H](NC)[C@H]2O[C@@]3(O)C(=O)C[C@@H](C)O[C@H]3O[C@@H]2[C@H]1O [Spectinomycin]
A. 16 µg/mL

Q. // next record CC[C@H]1OC(=O)C[C@@H](O)[C@H](C)[C@@H](O[C@@H]2O[C@H](C)[C@@H](O)[C@H](N(C)C)[C@H]2O)[C@@H](CCN2C[C@H](C)C[C@H](C)C2)C[C@@H](C)C(=O)/C=C/C(C)=C/[C@@H]1CO[C@@H]1O[C@H](C)[C@@H](O)[C@@H](OC)[C@H]1OC [Tilmicosin]
A. > 16 µg/mL
